test system: IL-6; assay: In vivo tolerability by IV: serum IL-6 by Luminex; set-up: species or system C57BL/6J mice; settings: Formulation No. 001, RNA No. 331, male C57BL/6J mice, 1.0 mg*kg/1 intravenous, 24 hours post injection
Entry flag: Fulfilled if IL-6 at 24 h reaches 6 pg/mL; Not fulfilled if it does not.

// below: answered compounds
Q: Does the compound CCCCC/C=C\C/C=C\CCCCCCCCOC(=O)NC(COC(=O)NCCN1CCCCCC1)C(=O)OCCCCCCCCCC(=O)OCCCCCCC (stereo not shown) [Lipid 959] have recorded IL-6 at 24 h that is 6 pg/mL or more?
A: Not fulfilled

Q: Does the compound CCCCC/C=C\C/C=C\CCCCCCCCOC(=O)NC(COC(=O)NCCN1CCCCCC1)C(=O)OCCCCCC(=O)OCC(CCCCCCCC)CCCCCCCCCC (stereo not shown) [Lipid 911] have recorded IL-6 at 24 h that is 6 pg/mL or more?
A: Not fulfilled

Q: hey, is IL-6 at 24 h for this one >= 6 pg/mL? CCCCC/C=C\C/C=C\CCCCCCCCOC(=O)NC(COC(=O)NCCN1CCCCCC1)C(=O)OCCCCCCCOC(=O)CCCCCCCCC (stereo not shown) [Lipid 944]
A: Not fulfilled

Q: Evaluate CCCCC/C=C\CCOC(=O)CCCCCOC(=O)C(COC(=O)NCCN1CCCCCC1)NC(=O)OCCCCCCCCOC(=O)C(CCCCCC)CCCCCCCC (stereo not shown) [Lipid 955] : IL-6 at 24 h at minimum 6 pg/mL?
A: Fulfilled

Q: Dear colleague, could you confirm whether CCCCCCCCC(CCCCCC)C(=O)OCCCCCCCCOC(=O)NC(COC(=O)NCCN1CCCCCC1)C(=O)OCCCCCCCCCCC(=O)OCCCCCC (stereo not shown) [Lipid 929] has IL-6 at 24 h at or above 6 pg/mL?
A: Not fulfilled

Q: Assess whether reported IL-6 at 24 h for CCCCC/C=C\C/C=C\CCCCCCCCOC(=O)NC(COC(=O)NCCNC)C(=O)OCCCCCC(=O)OCC(CCCCCCCC)CCCCCCCCCC (stereo not shown) [Lipid 907] sits at 6 pg/mL or higher.
A: Not fulfilled

Q: Does CCCCCCCCCC(=O)OCCCCCCCOC(=O)C(COC(=O)NCCN1CCCCCC1)NC(=O)OCCCCCCCCOC(=O)C(CCCCCC)CCCCCCCC (stereo not shown) [Lipid 934] have a reported IL-6 at 24 h of at least 6 pg/mL?
A: Fulfilled

Q: Form field: IL-6 at 24 h at least 6 pg/mL? Entry: CCCCC/C=C\CCOC(=O)CCCCCOC(=O)C(COC(=O)NCCN1CCCCC1)NC(=O)OCCCCCCCCOC(=O)C(CCCCCC)CCCCCCCC (stereo not shown) [Lipid 954]
A: Fulfilled

Q: Textbook exercise: given the entry CCCCC/C=C\C/C=C\CCCCCCCCOC(=O)NC(COC(=O)NCCN1CCCCCC1)C(=O)OCCCCCC(=O)OCCCCCCCCCCC (stereo not shown) [Lipid 939] , state whether its IL-6 at 24 h is greater than or equal to 6 pg/mL.
A: Fulfilled

Q: Does the compound CCCCCCCCCC(=O)OCCCCCCCOC(=O)C(COC(=O)NCCN1CCCCC1)NC(=O)OCCCCCCCCOC(=O)C(CCCCCC)CCCCCCCC (stereo not shown) [Lipid 933] have recorded IL-6 at 24 h that is 6 pg/mL or more?
A: Fulfilled

***
Q: Check if IL-6 at 24 h >= 6 pg/mL (inclusive). Item: CCCCCCCCC(CCCCCC)C(=O)OCCCCCCCCOC(=O)NC(COC(=O)NCCN1CCCCC1)C(=O)OCCCCCCCCOC(=O)C(CCCCCC)CCCCCCCC (stereo not shown) [Lipid 888]
A: Not fulfilled

Q: Hi, just wondering whether CCCCCCCCC(CCCCCC)C(=O)OCCCCCCCCOC(=O)NC(COC(=O)NCCN1CCCCC1)C(=O)OCCCCCCCCCCC(=O)OCCCCCC (stereo not shown) [Lipid 928] shows IL-6 at 24 h of 6 pg/mL or higher.
A: Fulfilled

====

Would you mind telling me the reported In vitro Expression (Mean) of each entry?
tested on: Hep G2 cells; assay: In vitro expression: luciferase activity in Hep G2 cells transfected with RNA-LNPs; assay type: cell-based; conditions: 100 ng/mL RNA-LNPs, 72 hours post transfection, Formulation 001, RNA 331
Numbers only.

Noted for CCCCCCCC/C=C\CCCCCCCC(=O)NC(COC(=O)NCCN1CCCCC1)C(=O)OCCCCCCCCOC(=O)C(CCCCCC)CCCCCCCC (stereo not drawn) : its In vitro Expression (Mean) reads 7.16E+05

The compound CCCCC/C=C\C/C=C\CCCCCCCC(=O)NC(COC(=O)NCCN1CCCCCC1)C(=O)OCCCCCCCC(=O)OC(CCCCCCCC)CCCCCCCC (stereo not drawn) showed In vitro Expression (Mean) equal to 1.89E+05

Now consider the entry below.
response.value for CCCCC/C=C\C/C=C\CCCCCCCC(=O)N[C@H](COC(=O)NCCN1CCCCCC1)C(=O)OCCCCCC(=O)OC(CCCCCCCC)CCCCCCCC (field: In vitro Expression (Mean)) = 5.98E+05

====

test: In vivo lipid metabolism by IV: ionizable lipid concentration in plasma and liver by LC-MS/MS; set-up: species or system Sprague-Dawley (SD) rats; conditions: male, Sprague-Dawley, rat, plasma, iv, 0.15 mg/kg, 96 h post injection, IV 0.15 mg/kg RNA-LNPs (hEPO), male SD rats, individual animals N=3
recorded.endpoint: concentration at 96 h (ng/mL)
Answers are plain numbers, in ng/mL.

// CCCCCCCCCCC(CCCCCCCC)COC(=O)CCCCCOC(=O)NC(COC(=O)NCCN1CCCCC1)C(=O)OCCCCCC(=O)OCC(CCCCCCCC)CCCCCCCCCC (stereo not shown) [Lipid 1020] : concentration at 96 h value = 33.6

====

assay: In vivo lipid metabolism by IV: ionizable lipid concentration in plasma and liver by LC-MS/MS; design: species or system Sprague-Dawley (SD) rats; settings: male, Sprague-Dawley, rat, plasma, iv, 0.15 mg/kg, 1 h post injection, IV 0.15 mg/kg RNA-LNPs (hEPO), male SD rats, individual animals N=3
Task for the reader: assign each of the following compounds its reported concentration at 1 h.
Numbers only, in ng/mL.

Example results:
Entry CCCCCCCC/C=C\CCCCCCCC(=O)NC(COC(=O)NCCN1CCCCC1)C(=O)OCCCCCCCCOC(=O)C(CCCCCC)CCCCCCCC (stereo not shown) — recorded concentration at 1 h = 1440

Per the records, this compound ( CCCCCCCCC(CCCCCC)C(=O)OCCCCCCCCOC(=O)NC(COC(=O)NCCN1CCCCC1)C(=O)OCCCCCCCCOC(=O)C(CCCCCC)CCCCCCCC (stereo not shown) ) has concentration at 1 h equal to 1640

So, CCCCCCCCCCC(CCCCCCCC)COC(=O)CCCCCOC(=O)NC(COC(=O)NCCN1CCCCC1)C(=O)OCCCCCC(=O)OCC(CCCCCCCC)CCCCCCCCCC (stereo not shown) ? Its concentration at 1 h was 2420

Pending compound:
Just so you know, measured concentration at 1 h for CCCCCCCCCCC(CCCCCCCC)COC(=O)CCCCCOC(=O)NC(COC(=O)NCCN1CCCCCC1)C(=O)OCCCCCC(=O)OCC(CCCCCCCC)CCCCCCCCCC (stereo not shown) came out at 3280

====

System: Balb/c mice
Experiment: In vivo expression by IV, 0.05 mg/kg luciferase RNA-LNPs, IVIS luminescence
Conditions: Formulation No. 001, RNA No. 331; female Balb/c mice, 0.05 mg*kg−1 intravenous, 24-hours post injection
Experimental: 7-8 week old, female Balb/c mice (N=3) were injected with 0.05 mg*kg−1 of RNA-LNPs encoding for firefly-luciferase by intravenous injection. At 24- and 72-hours post injection, animals were intraperitoneally injected with 15 mg/mi of Luciferin substrate and whole-body luminescence was determined by a bioluminescent in vivo imaging system (IVIS). 7-8 week old, female Balb/c mice (N=3) were injected with 0.05 mg*kg−1 of RNA-LNPs encoding for firefly-luciferase by intravenous injection. […]
recorded.endpoint: Whole body (p/s) (Mean)
One number for each entry, in p/s.

Known value: Balb/c mice Whole body (p/s) (Mean) of the molecule CCCCCCCCCC(=O)OCCCCCCCOC(=O)C(COC(=O)NCCN1CCCCC1)NC(=O)OCCCCCCCCOC(=O)C(CCCCCC)CCCCCCCC (stereo not drawn) equals 2.89E+09

Batch of 2 molecules: report Whole body (p/s) (Mean) for each.
1. CCCCC/C=C\C/C=C\CCCCCCCCOC(=O)NC(COC(=O)NCCN1CCCCCC1)C(=O)OCCCCCC(=O)OCCCCCCCCCCC (stereo not drawn)
2. CCCCC/C=C\C/C=C\CCCCCCCCOC(=O)C(COC(=O)NCCN1CCCCC1)NC(=O)OCCCCCCCCOC(=O)C(CCCCCC)CCCCCCCC (stereo not drawn)

A:
1: 1.17E+09; 2: 1.21E+09

Look at each molecule and report its Whole body (p/s) (Mean).
1. CCCCCCCCC(CCCCCCCC)OC(=O)CCCCCCCOC(=O)C(COC(=O)NCCN1CCCCCC1)NC(=O)OCCCCCCCCOC(=O)C(CCCCCC)CCCCCCCC (stereo not drawn)
2. CCCCCCCC/C=C\CCCCCCCC(=O)NC(COC(=O)NCCN1CCCCC1)C(=O)OCCCCCC(=O)OCC(CCCCCCCC)CCCCCCCCCC (stereo not drawn)

A:
1. 8.36E+08
2. 2.18E+09

Cited source for all entries: patent US20260200849A1
